- target-system: VPAC1 receptor (CHO-K1/VPAC1 cells) (Homo sapiens, UniProt P32241)
- Construct: expressed in transfected cells
- Sequence (P32241 31-457): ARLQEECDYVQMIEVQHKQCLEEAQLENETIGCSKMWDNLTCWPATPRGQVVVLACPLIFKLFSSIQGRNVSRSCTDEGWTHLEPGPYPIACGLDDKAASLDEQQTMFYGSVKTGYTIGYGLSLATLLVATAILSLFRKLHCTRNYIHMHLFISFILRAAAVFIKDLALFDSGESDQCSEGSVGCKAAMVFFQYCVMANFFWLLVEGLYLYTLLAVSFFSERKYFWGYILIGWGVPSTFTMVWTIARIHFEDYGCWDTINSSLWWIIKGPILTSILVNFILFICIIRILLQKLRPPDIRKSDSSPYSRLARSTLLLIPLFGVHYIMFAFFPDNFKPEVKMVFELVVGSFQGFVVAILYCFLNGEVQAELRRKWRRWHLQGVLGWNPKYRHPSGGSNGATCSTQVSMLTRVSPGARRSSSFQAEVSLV
- experimental-details: competitive inhibition ELISA: binding of positive phage clone VP2 to CHO-K1/VPAC1 cells, inhibited by synthetic peptide
- assay-context: peptide 0-100 µg/ml; 1×10^10 pfu phage VP2, 37°C, 2 h
pIC50: −log10 of the molar value. No end group written: not given here.

{"columns": ["biosequence", "pIC50"],
 "data": [
  ["GFRFGALHEYNS [VP2]", "~7.88"]
]}
